Test target: NIH-3T3 cells overexpressing human IGF-1R (Homo sapiens, UniProt P08069)
Construct: expressed in transfected cells; host or cells: NIH-3T3 (mouse fibroblasts)
Sequence (P08069 31-1367): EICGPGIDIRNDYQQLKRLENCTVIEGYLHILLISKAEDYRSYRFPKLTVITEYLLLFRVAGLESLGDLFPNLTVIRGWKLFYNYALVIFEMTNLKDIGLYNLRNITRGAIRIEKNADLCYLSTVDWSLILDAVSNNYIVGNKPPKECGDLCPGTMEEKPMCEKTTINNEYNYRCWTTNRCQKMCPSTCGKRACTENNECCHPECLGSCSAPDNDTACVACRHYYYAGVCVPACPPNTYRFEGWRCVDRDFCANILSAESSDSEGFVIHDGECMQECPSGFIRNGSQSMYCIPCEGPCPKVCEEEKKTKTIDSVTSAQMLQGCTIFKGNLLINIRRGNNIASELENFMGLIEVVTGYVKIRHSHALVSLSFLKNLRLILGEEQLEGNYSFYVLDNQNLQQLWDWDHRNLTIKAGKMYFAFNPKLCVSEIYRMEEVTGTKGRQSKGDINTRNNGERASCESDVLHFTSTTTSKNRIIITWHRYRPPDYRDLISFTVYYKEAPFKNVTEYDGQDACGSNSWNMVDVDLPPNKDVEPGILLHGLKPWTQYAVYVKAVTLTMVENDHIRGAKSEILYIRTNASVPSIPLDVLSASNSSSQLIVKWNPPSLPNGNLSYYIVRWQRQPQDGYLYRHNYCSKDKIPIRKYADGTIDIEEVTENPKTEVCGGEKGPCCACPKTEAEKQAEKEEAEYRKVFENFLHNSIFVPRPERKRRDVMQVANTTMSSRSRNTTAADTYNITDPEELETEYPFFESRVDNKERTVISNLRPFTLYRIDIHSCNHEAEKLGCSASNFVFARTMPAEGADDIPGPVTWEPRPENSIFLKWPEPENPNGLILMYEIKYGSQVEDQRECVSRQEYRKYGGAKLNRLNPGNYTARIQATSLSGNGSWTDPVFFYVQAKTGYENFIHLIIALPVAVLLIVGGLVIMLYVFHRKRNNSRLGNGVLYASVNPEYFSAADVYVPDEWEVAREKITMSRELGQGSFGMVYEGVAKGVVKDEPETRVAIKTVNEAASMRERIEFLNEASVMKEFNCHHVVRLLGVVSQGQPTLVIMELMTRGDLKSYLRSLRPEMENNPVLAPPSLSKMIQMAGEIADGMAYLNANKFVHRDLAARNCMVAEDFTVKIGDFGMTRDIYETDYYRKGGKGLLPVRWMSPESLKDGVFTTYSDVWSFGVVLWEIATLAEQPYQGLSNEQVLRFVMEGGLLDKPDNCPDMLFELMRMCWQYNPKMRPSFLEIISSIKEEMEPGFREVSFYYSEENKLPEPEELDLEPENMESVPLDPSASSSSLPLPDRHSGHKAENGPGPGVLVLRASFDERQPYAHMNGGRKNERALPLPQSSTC
Experiment notes: IGF-1R cellular autophosphorylation (DELFIA)
Assay type: cell-based
pIC50: −log10 of the molar value.
Readout label: pIC50

Some entries whose results are on file:
smiles_representation=CNC(=O)c1c(F)cccc1Nc1nc(Nc2cc3c(cc2OC)CCN3C(=O)CN2CCCC2)nc2[nH]ccc12 result="> 7.00"
smiles_representation=CCCN1CCC(c2ccc(Nc3nc(Nc4cccc(F)c4C(N)=O)c4cc[nH]c4n3)c(OC)c2)CC1 result="6.30 to 7.00"

Prompt: What reported pIC50 corresponds to COc1cc(N2CCN(C(C)C)CC2)ccc1Nc1nc(Nc2cccc(F)c2C(N)=O)c2cc[nH]c2n1 on NIH-3T3 cells overexpressing human IGF-1R (Homo sapiens, UniProt P08069)?
Completion: 6.30 to 7.00

----------
Test target: human IR (hIR) (Homo sapiens, UniProt P06213)
Construct: containing amino acid residues 979-1382 of human IR
Sequence (P06213 979-1382): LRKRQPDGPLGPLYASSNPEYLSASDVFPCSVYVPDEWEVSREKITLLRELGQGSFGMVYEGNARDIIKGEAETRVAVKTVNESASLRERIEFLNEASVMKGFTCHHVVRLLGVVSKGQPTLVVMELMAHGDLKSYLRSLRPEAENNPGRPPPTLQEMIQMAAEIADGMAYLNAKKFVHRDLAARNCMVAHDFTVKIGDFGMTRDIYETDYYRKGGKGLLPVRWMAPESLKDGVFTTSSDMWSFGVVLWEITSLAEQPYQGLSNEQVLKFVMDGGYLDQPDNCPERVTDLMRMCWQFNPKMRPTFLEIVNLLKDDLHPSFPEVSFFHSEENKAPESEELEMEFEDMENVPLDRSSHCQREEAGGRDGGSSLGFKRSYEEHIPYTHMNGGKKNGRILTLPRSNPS
Experiment notes: TR-FRET kinase assay of purified hIR
Experimental parameters: activated hIR 0.5 nM, 10 μM ATP, values given as pIC50 category
pIC50: −log10 of the molar value.
Readout label: pIC50

As a guide, the following entries are already answered.
smiles_representation=CNCC(=O)N1CCc2cc(OC)c(Nc3nc(Nc4cccc(F)c4C(N)=O)c4cc[nH]c4n3)cc21 test_target="human IR (hIR) (Homo sapiens, UniProt P06213)" result="8.40 to 8.90"
smiles_representation=COc1cc2c(cc1Nc1nc(Nc3cccc(F)c3C(N)=O)c3cc[nH]c3n1)N(CCN(C)C)CC2 test_target="human IR (hIR) (Homo sapiens, UniProt P06213)" result="6.80 to 8.30"
smiles_representation=COc1cc2c(cc1Nc1nc(Nc3cccc(F)c3C(N)=O)c3cc[nH]c3n1)CN(C(=O)CCN1CCOCC1)CC2 test_target="human IR (hIR) (Homo sapiens, UniProt P06213)" result="6.80 to 8.30"

Now take the following compound into account.
Prompt: Return reported pIC50; argument: COc1cc(N2CCOC[C@@H]2C)ccc1Nc1nc(Nc2cc(F)cc(F)c2C(N)=O)c2cc[nH]c2n1
Completion: 8.40 to 8.90

----------
IC50 data for ALK (Homo sapiens) follow.

Here are 5 compounds together with their reported answers.
compound="COc1cc2c(cc1Nc1nc(Nc3cccc(F)c3C(N)=O)c3cc[nH]c3n1)CN(C(=O)CCN1CCN(C(C)C)CC1)CC2 [Example 229]" readout_label=IC50 result="5.01 to 200 nM"
compound="COc1cc2c(cc1Nc1nc(Nc3cccc(F)c3C(N)=O)c3cc[nH]c3n1)N(C(=O)Cn1ccnc1)CC2 [Example 145]" readout_label=IC50 result="5.01 to 200 nM"
compound="COc1cc(N2CCOC[C@@H]2C)ccc1Nc1nc(Nc2cc(F)c(F)cc2C(N)=O)c2cc[nH]c2n1 [Example 105]" readout_label=IC50 result="1.26 to 3.98 nM"
compound="COc1cc2c(cc1Nc1nc(Nc3ccccc3C(N)=O)c3cc[nH]c3n1)N(C(=O)CN(C)C)CC2 [Example 240]" readout_label=IC50 result="0.251 to 1 nM"
compound="COc1cc(N2CCOCC2)ccc1Nc1nc(Nc2cc(F)ccc2C(N)=O)c2cc[nH]c2n1 [Example 83]" readout_label=IC50 result="5.01 to 200 nM"

Prompt: So what IC50 did COc1cc2c(cc1Nc1nc(Nc3cccc(F)c3C(N)=O)c3cc[nH]c3n1)N(C(=O)CN1CCC1)CC2 [Example 143] get with ALK (Homo sapiens)?
Completion: 1.26 to 3.98 nM

Prompt: ALK (Homo sapiens) / IC50 / COc1cc(N2CCOCC2)ccc1Nc1nc(Nc2cc(F)c(F)cc2C(N)=O)c2cc[nH]c2n1 [Example 104] : value?
Completion: 1.26 to 3.98 nM

Data origin: patent US7981903B2
